# Tested on: ATP;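 note: ATP exposure 15 min at 22 °C before imaging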
# run_description: switch fluorescence ratio, 500 uM ATP over buffer (Cy3 cluster intensity, sum of 5 cycles each) (fold (ratio)); higher = stronger signal-on switching upon ATP binding; sequences stand for … in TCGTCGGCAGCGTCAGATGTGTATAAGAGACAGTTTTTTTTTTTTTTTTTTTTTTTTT…TC
# applied_conditions: aptamer strand: ATP DNA aptamer (quencher-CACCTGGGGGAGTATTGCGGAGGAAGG + anchor), 100 nM annealed; ATP concentration: 500 uM
Give measured switch fluorescence ratio for each item. Keep answers brief.
Answers are plain numbers.

Solved entries:
{"columns": ["seq", "switch fluorescence ratio"],
 "data": [
  ["GGGGGCGGGA", 1.02],
  ["GCTGTTGTCG", 0.974],
  ["TTAGTTCCTT", 1.01],
  ["ACATTTGGGG", 1.03],
  ["CAAGAGCGGT", 1.02],
  ["GCTTCGGGGG", 1.06]
]}

// for each sequence in input: emit switch fluorescence ratio
1. TTTGGTTGTG
2. TAAGGTAACG

1. 0.986
2. 1.05

// for each sequence in input: emit switch fluorescence ratio
1. GGGATTGAAT
2. CAAAATGCTT
3. GTGAGGGAAC

[1.01, 0.99, 0.973]

For every record below, what is its switch fluorescence ratio?
1. AGGGAATGAT
2. TCAGGGGAAC

1: 1.01; 2: 1.06

====

Provide the reported switch fluorescence ratio of each item.
# Tested on: ATP;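 note: ATP exposure 15 min at 22 °C before imaging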
# run_description: switch fluorescence ratio, 500 uM ATP over buffer (Cy3 cluster intensity, sum of 5 cycles each) (fold (ratio)); higher = stronger signal-on switching upon ATP binding; sequences stand for … in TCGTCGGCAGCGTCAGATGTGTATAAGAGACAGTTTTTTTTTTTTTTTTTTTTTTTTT…TC
# applied_conditions: aptamer strand: ATP DNA aptamer (quencher-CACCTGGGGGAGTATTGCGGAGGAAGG + anchor), 100 nM annealed; ATP concentration: 500 uM
One number for each entry.

Worked examples follow.
{"columns": ["seq", "measured_property", "meas_value"],
 "data": [
  ["TGTAAGGATT", "switch fluorescence ratio", 1.01],
  ["ACATTCAGTA", "switch fluorescence ratio", 0.991],
  ["AGCAAAAGGA", "switch fluorescence ratio", 1.16]
]}

Report switch fluorescence ratio for each item below.
1. TTTTTAATTG
2. AAACGGGGCG
3. TTGCAAGAGG
4. GGGGTTGGTC

[0.997, 0.972, 1.02, 1.04]

Kindly give each listed record's switch fluorescence ratio.
1. CATGGGGTGG
2. TTGGGATGTG
3. GGTCGAGTGG

[0.967, 0.986, 0.988]

====

Record form. Attribute: switch fluorescence ratio. Fill in for each entry.
# System: ATP;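 note: ATP exposure 15 min at 22 °C before imaging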
# run_description: switch fluorescence ratio, 500 uM ATP over buffer (Cy3 cluster intensity, sum of 5 cycles each) (fold (ratio)); higher = stronger signal-on switching upon ATP binding; sequences stand for … in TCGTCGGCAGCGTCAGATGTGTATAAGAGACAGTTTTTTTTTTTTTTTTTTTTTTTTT…TC
# applied_conditions: aptamer strand: ATP DNA aptamer (quencher-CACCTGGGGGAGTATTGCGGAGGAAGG + anchor), 100 nM annealed; ATP concentration: 500 uM
Give bare numbers.

Could you tell me switch fluorescence ratio for each of these sequences? They are listed below.
1. GATTCCGTTG
2. GAGTTTGGGT
3. CCAGGACTGC
4. TCTTTTGGTA
5. GCGCGGGGTA
6. GATTGTTGGG
7. GAGGGTTGGC
8. TTCATCGCTG

1: 1.04; 2: 0.985; 3: 0.972; 4: 0.99; 5: 0.997; 6: 0.984; 7: 0.95; 8: 1.04

Required: switch fluorescence ratio, one value per sequence below.
1. CGTATTGCGC
2. GCTGATACTT
3. GTCATAGGGG
4. GATATCAGGG
5. TCCTGGGAT

0.971
1.07
1.01
0.978
1.01

Items follow; give switch fluorescence ratio for each.
1. TCATTTGTTG
2. AATTTTAGAA
3. TTCTGAAGC
4. AGGGTGTGCA
5. CATGTTTTGT

1.01
1
3.69
0.999
1.02

Reference source: the supplement of paper PMC10126150
